Each recorded value in this set is attributed to the supplement of paper PMC9732359.

Overview of reported protein stability index across a group of sequences:
measurement description: protein stability index of a GFP-peptide fusion (yeast GPS) (PSI 1-4); higher = more stable; sorted into four equal gates, so the index is relative within each strain
experimental context: pdr5∆
measured property: protein stability index

item sequence: APNHSPEIDNLDDLVVL [RRP6]
recorded number: 3.51

item sequence: QPNARALERYDEAEGRF [SMC1]
recorded number: 3.58

item sequence: LNLDEIVACELILSGDT [YJL039C/NUP192]
recorded number: 2.7

item sequence: DTVEEKKEEKLNIGKNF [SIR4]
recorded number: 2.71

item sequence: ALRALQENGTIFRGSLI [YDL088C/ASM4]
recorded number: 1.68

item sequence: SNILLNSLTKYPDLKAF [MED1]
recorded number: 2.41

item sequence: DSMKYTISSLFVQLCEM [RPC82]
recorded number: 2.26

item sequence: SELQRLSHENNVMLEKI [RPT5]
recorded number: 3.1

item sequence: DDNNNNNNNNNNNNSTR [GRR1]
recorded number: 3.02

item sequence: NIQHLLYGKRFFPYYVH [PRE7]
recorded number: 1.45

item sequence: LPVKEFQIIDTLLPGLQ [RPS2]
recorded number: 1.83

item sequence: PEETPLEELAETFQDTF [FAS2]
recorded number: 2.96

item sequence: QQRFQALQQQQQQQQNQ [SWI1]
recorded number: 2.07

item sequence: DLNHVTEELQTQYATSQ [SMC2]
recorded number: 3.17

item sequence: VEESGEHVILGNGELYM [SNU114]
recorded number: 3.12

item sequence: LAVLALVIVKKGEQELE [RPS6A]
recorded number: 1.56

item sequence: QIIQRDKINKYSLIRET [SNF5]
recorded number: 1.3

item sequence: KAERVEDQKVVDKALIA [RPL6A]
recorded number: 3.5

item sequence: LKGRVVEVCLADLQGSE [RPS1A]
recorded number: 3.08

item sequence: VPTIGVVNSNFAKEHNA [YJR042W/NUP85]
recorded number: 2.61

item sequence: PAKSASARGSYLRVSFK [RPL17A]
recorded number: 3.27

item sequence: DQYDAERDFYHSLREYI [RPO31]
recorded number: 3

item sequence: KTATVKINKKLNKAGKP [RPL38]
recorded number: 3.21

item sequence: VEHLLRDVRDQAAGGLS [RPN8]
recorded number: 1.99

item sequence: EKAVEEKPAVKSYASLL [RPT3]
recorded number: 3.02

item sequence: IEHNLRVISEYYSRITL [RPN5]
recorded number: 2.54

item sequence: KRCMDDLNPLKTLNLFK [RPO31]
recorded number: 2.99

item sequence: DITGDIRNEGSDAEEEE [ISW2]
recorded number: 3.1

item sequence: FWSFLDSLIFKDSSLNY [YJL039C/NUP192]
recorded number: 2.74

item sequence: NSADVDMDAQGRSDSNT [YGL100W/SEH1]
recorded number: 3.39

item sequence: AASVIGMLVALGRLSVR [RPC82]
recorded number: 1.32

item sequence: SRNGDFPRTRFEAQIDS [RPN10]
recorded number: 3.28

item sequence: RRKFDPSSSENVMTPRE [UBP6]
recorded number: 1.99

item sequence: SVIPEVDREAMLKPNII [YCG1]
recorded number: 3.31

item sequence: SAVIIDEFKDITKEVTQ [YIL149C/MLP2]
recorded number: 2.89

item sequence: IRDNKLVSEKIINSTAL [RPC82]
recorded number: 3.24

item sequence: ELNVEKLNTFNLQTFTH [SRP72]
recorded number: 2.33

item sequence: DNMSEEQWLRQFEVSDD [SNF2]
recorded number: 3.22

item sequence: NYPQDEINAVFNELCDP [POP1]
recorded number: 3.04

item sequence: SLFHIVVDTEETATLIM [SMC3]
recorded number: 2.17

item sequence: SSLFQEKLLETNVSKQN [ECM29]
recorded number: 2.55

item sequence: HIFQVEYALEAVKRGTC [PRE6]
recorded number: 2.75

item sequence: ICQIISSTITGDVVLAA [RPL5]
recorded number: 1.89

item sequence: QNAADLQQICRVRNKDI [RPL9A]
recorded number: 3.3

item sequence: PDPRSTVIPEDEEIIQL [RPO21]
recorded number: 2.75

item sequence: ISIYNMLPPKSVKFTHI [SSN2]
recorded number: 1.76

item sequence: FLKERLMEASDAFRVHI [RPB2]
recorded number: 1.7

item sequence: TVYSSEQYIQELDKRED [SMC3]
recorded number: 3.26

item sequence: DFTLPEDFAPLLAEEEE [PRP8]
recorded number: 3.64

item sequence: PTTNEPAKPALSFGTAT [YJL041W/NSP1]
recorded number: 3.08

item sequence: KIAERSLLLKNYLNDMH [SKP1]
recorded number: 2.54

item sequence: FEIQGVPPMKLAYSKIV [YMR129W/POM152]
recorded number: 2.01

item sequence: IKNLPADVSKLMYSITF [SRB2]
recorded number: 2.95

item sequence: SSVTSDSMKYTISSLFV [RPC82]
recorded number: 2.3

item sequence: EQLSEEDAKLKTDLELL [RPN1]
recorded number: 3.25

item sequence: TSTVNRLNTVTRVHQLM [MCD1]
recorded number: 1.49

item sequence: VHKERHDGGFDLVHIKD [RPS4A]
recorded number: 1.94

item sequence: TFGKPEEEDSILSLEQS [YCS4]
recorded number: 3.19

item sequence: DLIADTITNSSSSSDII [YML103C/NUP188]
recorded number: 2.46

item sequence: KKACIIFFDEIDAVGGA [RPT1]
recorded number: 2.67
